RECORDED ENDPOINT: melting point

Memo: COc1ccc2c(c1)C(C#CC1CC1)(C(F)(F)F)N=CC(=O)N2 (stereo not shown) [compound 198] , reported melting point: 145 to 146 °C

Memo: CCCCCC1(C(F)(F)F)N=C(C)C(=O)Nc2ccc(Cl)cc21 (stereo not shown) [compound 171] , reported melting point: 103 to 104 °C

Memo: COc1cccc(F)c1CN1CC(=O)Nc2ccc(Cl)cc2C1C(F)(F)F (stereo not shown) [compound 146] , reported melting point: 107 to 108 °C

Memo: CCCCCC1(C(F)(F)F)N=CC(=O)Nc2ccc(Cl)cc21 (stereo not shown) [compound 187] , reported melting point: 153 to 155 °C

Memo: CC(C)C#CC1(C(F)(F)F)N=CC(=O)Nc2ccc(Cl)cc21 (stereo not shown) [compound 134] , reported melting point: 185 to 187 °C

Memo: N#Cc1cccc(CN2CC(=O)Nc3ccc(Cl)cc3C2C(F)(F)F)c1 (stereo not shown) [compound 120] , reported melting point: 241 to 242 °C

Memo: CC(C)CCC1(C(F)(F)F)N=CC(=O)Nc2ccc(Cl)cc21 (stereo not shown) [compound 188] , reported melting point: 150 to 152 °C

Memo: CCC#CCN1CC(=O)Nc2ccc(Cl)cc2C1C(F)(F)F (stereo not shown) [compound 160] , reported melting point: 114 to 115 °C

Memo: O=C1C=NC(Cc2ccccn2)(C(F)(F)F)c2cc(Cl)ccc2N1 (stereo not shown) [compound 202] , reported melting point: 137 to 140 °C

Memo: CCCCCC1(C(F)(F)F)N=C(CC(C)C)C(=O)Nc2ccc(Cl)cc21 (stereo not shown) [compound 176] , reported melting point: 94 to 95 °C

Memo: O=C1CN(Cc2ccccc2Br)C(C(F)(F)F)c2cc(Cl)ccc2N1 (stereo not shown) [compound 114] , reported melting point: 161 to 162 °C

Memo: O=C1C=NC(C#CC2CC2)(C(F)(F)F)c2c(ccc(F)c2F)N1 (stereo not shown) [compound 195] , reported melting point: 185 to 187 °C

Memo: CCCCCN1CC(=O)Nc2ccc(Cl)cc2C1C(F)(F)F (stereo not shown) [compound 111] , reported melting point: 94 to 96 °C

Memo: O=C1CN(CC#CC2CC2)C(C(F)(F)F)c2cc(Cl)ccc2N1 (stereo not shown) [compound 127] , reported melting point: 121 to 123 °C

Memo: CCCCCCC1(C(F)(F)F)N=CC(=O)Nc2ccc(Cl)cc21 (stereo not shown) [compound 192] , reported melting point: 115 to 120 °C

Memo: O=C1CN(c2ccccc2)C(C(F)(F)F)c2cc(Cl)ccc2N1 (stereo not shown) [compound 164] , reported melting point: 187 to 188 °C

Memo: O=C1C=NC(CCc2ccccc2)(C(F)(F)F)c2cc(Cl)ccc2N1 (stereo not shown) [compound 170] , reported melting point: 182 to 183 °C

Memo: C=CCCCN1CC(=O)Nc2ccc(Cl)cc2C1C(F)(F)F (stereo not shown) [compound 152] , reported melting point: 86 to 87 °C

Memo: O=C1CN(Cc2ccccc2F)C(C(F)(F)F)c2cc(Cl)ccc2N1 (stereo not shown) [compound 137] , reported melting point: 170 to 171 °C

Memo: COc1ccc(OC)c(CN2CC(=O)Nc3ccc(Cl)cc3C2C(F)(F)F)c1 (stereo not shown) [compound 144] , reported melting point: 182 to 183 °C

Memo: CCCCCC1(C(F)(F)F)N=CC(=O)Nc2ccc(Cl)cc21 (stereo not shown) [compound 179] , reported melting point: 142 to 143 °C

Memo: COc1cccnc1CN1CC(=O)Nc2ccc(Cl)cc2C1C(F)(F)F (stereo not shown) [compound 126] , reported melting point: 146 to 148 °C

Memo: O=C1C=NC(C#CC2CC2)(C(F)(F)F)c2cc(F)ccc2N1 (stereo not shown) [compound 199] , reported melting point: 175 to 178 °C

Memo: CCCCCCN1CC(=O)Nc2ccc(Cl)cc2C1C(F)(F)F (stereo not shown) [compound 107] , reported melting point: 87 to 88 °C

Memo: O=C1CN(Cc2cccs2)C(C(F)(F)F)c2cc(Cl)ccc2N1 (stereo not shown) [compound 122] , reported melting point: 105 to 107 °C

Memo: O=C1CN(CCc2cccc(Cl)c2)C(C(F)(F)F)c2cc(Cl)ccc2N1 (stereo not shown) [compound 141] , reported melting point: 208 to 209 °C

Memo: N#Cc1ccccc1CN1CC(=O)Nc2ccc(Cl)cc2C1C(F)(F)F (stereo not shown) [compound 116] , reported melting point: 184 to 185 °C

Memo: CC#CCN1CC(=O)Nc2ccc(Cl)cc2C1C(F)(F)F (stereo not shown) [compound 166] , reported melting point: 174 to 175 °C

Memo: O=C1C=NC(CC(=O)C2CC2)(C(F)(F)F)c2cc(Cl)ccc2N1 (stereo not shown) [compound 167] , reported melting point: 148 to 149 °C

Memo: CC(C)=CCN1CC(=O)Nc2ccc(Cl)cc2C1C(F)(F)F (stereo not shown) [compound 101] , reported melting point: 120 to 125 °C

Memo: CC1=NC(CCC2CC2)(C(F)(F)F)c2cc(Cl)ccc2NC1=O (stereo not shown) [compound 194] , reported melting point: 146 to 148 °C

Memo: CCC1=NC(C#CC2CC2)(C(F)(F)F)c2ccccc2NC1=O (stereo not shown) [compound 186] , reported melting point: 181 to 182 °C

Memo: O=C1CN(Cc2ccccc2)C(C(F)(F)F)c2cc(Cl)ccc2N1 (stereo not shown) [compound 110] , reported melting point: 142 to 143 °C

Memo: CCCCC1(C(F)(F)F)c2cc(Cl)ccc2NC(=O)CN1c1ccccc1 (stereo not shown) [compound 159] , reported melting point: 177 to 178 °C

Memo: Cc1ccccc1CN1CC(=O)Nc2ccc(Cl)cc2C1C(F)(F)F (stereo not shown) [compound 113] , reported melting point: 197 to 198 °C

Memo: COc1cccc(F)c1CN1CC(=O)Nc2ccc(Cl)cc2C1C(F)(F)F (stereo not shown) [compound 158] , reported melting point: 156 to 157 °C

Memo: O=C1CN(Cc2ccccn2)C(C(F)(F)F)c2cc(Cl)ccc2N1 (stereo not shown) [compound 102] , reported melting point: 184 to 187 °C
